system: Mycobacterium tuberculosis Erdman (autoluminescent); assay: Einf, fitted maximum growth inhibition of three-drug combination (fraction); higher = stronger maximal inhibition; settings: in vitro model: intracellular J774; time point: constant = terminal
Each record here notes measured Einf.
Could you keep your reply to the number by itself?

Below: 4 molecules and their reported Einf.
Molecule: COc1nc2ccc(Br)cc2cc1[C@@H](c1ccccc1)[C@@](O)(CCN(C)C)c1cccc2ccccc12 [bedaquiline] + O=[N+]([O-])c1cn2c(n1)OC[C@@H](OCc1ccc(OC(F)(F)F)cc1)C2 [pretomanid] + NC(=O)c1cnccn1 [pyrazinamide]
Einf: 0.972

Molecule: CC[C@@H](CO)NCCN[C@@H](CC)CO [ethambutol] + CO[C@H]1/C=C/O[C@@]2(C)Oc3c(C)c(O)c4c(O)c(c(/C=N/N5CCN(C6CCCC6)CC5)c(O)c4c3C2=O)NC(=O)/C(C)=C\C=C\[C@H](C)[C@H](O)[C@@H](C)[C@@H](O)[C@@H](C)[C@H](OC(C)=O)[C@@H]1C [rifapentine] + CO[C@H]1/C=C/O[C@@]2(C)Oc3c(C)c(O)c4c(O)c(c(/C=N/N5CCN(C)CC5)c(O)c4c3C2=O)NC(=O)/C(C)=C\C=C\[C@H](C)[C@H](O)[C@@H](C)[C@@H](O)[C@@H](C)[C@H](OC(C)=O)[C@@H]1C [rifampicin]
Einf: 0.964

Molecule: CC(C)/N=c1\cc2n(-c3ccc(Cl)cc3)c3ccccc3nc-2cc1Nc1ccc(Cl)cc1 [clofazimine] + CC[C@@H](CO)NCCN[C@@H](CC)CO [ethambutol] + CO[C@H]1/C=C/O[C@@]2(C)Oc3c(C)c(O)c4c(O)c(c(/C=N/N5CCN(C6CCCC6)CC5)c(O)c4c3C2=O)NC(=O)/C(C)=C\C=C\[C@H](C)[C@H](O)[C@@H](C)[C@@H](O)[C@@H](C)[C@H](OC(C)=O)[C@@H]1C [rifapentine]
Einf: 0.973

Molecule: CC[C@@H](CO)NCCN[C@@H](CC)CO [ethambutol] + COc1c(N2C[C@@H]3CCCN[C@@H]3C2)c(F)cc2c(=O)c(C(=O)O)cn(C3CC3)c12 [moxifloxacin] + CO[C@H]1/C=C/O[C@@]2(C)Oc3c(C)c(O)c4c(O)c(c(/C=N/N5CCN(C6CCCC6)CC5)c(O)c4c3C2=O)NC(=O)/C(C)=C\C=C\[C@H](C)[C@H](O)[C@@H](C)[C@@H](O)[C@@H](C)[C@H](OC(C)=O)[C@@H]1C [rifapentine]
Einf: 0.975

Task: Returns the measured Einf for the input molecule. Input: CC(C)/N=c1\cc2n(-c3ccc(Cl)cc3)c3ccccc3nc-2cc1Nc1ccc(Cl)cc1 [clofazimine] + CC[C@@H](CO)NCCN[C@@H](CC)CO [ethambutol] + CO[C@H]1/C=C/O[C@@]2(C)Oc3c(C)c(O)c4c(O)c(c(/C=N/N5CCN(C)CC5)c(O)c4c3C2=O)NC(=O)/C(C)=C\C=C\[C@H](C)[C@H](O)[C@@H](C)[C@@H](O)[C@@H](C)[C@H](OC(C)=O)[C@@H]1C [rifampicin]
Output: 0.969

Task: Which Einf is listed for COc1nc2ccc(Br)cc2cc1[C@@H](c1ccccc1)[C@@](O)(CCN(C)C)c1cccc2ccccc12 [bedaquiline] + NNC(=O)c1ccncc1 [isoniazid] + COc1c(N2C[C@@H]3CCCN[C@@H]3C2)c(F)cc2c(=O)c(C(=O)O)cn(C3CC3)c12 [moxifloxacin] ?
Output: 0.972

Task: What value of Einf has been reported for the following molecule? NNC(=O)c1ccncc1 [isoniazid] + CC(=O)NC[C@H]1CN(c2ccc(N3CCOCC3)c(F)c2)C(=O)O1 [linezolid] + CO[C@H]1/C=C/O[C@@]2(C)Oc3c(C)c(O)c4c(O)c(c(/C=N/N5CCN(C6CCCC6)CC5)c(O)c4c3C2=O)NC(=O)/C(C)=C\C=C\[C@H](C)[C@H](O)[C@@H](C)[C@@H](O)[C@@H](C)[C@H](OC(C)=O)[C@@H]1C [rifapentine]
Output: 0.946

Task: Please give the measured Einf for this molecule: COc1c(N2C[C@@H]3CCCN[C@@H]3C2)c(F)cc2c(=O)c(C(=O)O)cn(C3CC3)c12 [moxifloxacin] + NC(=O)c1cnccn1 [pyrazinamide] + CO[C@H]1/C=C/O[C@@]2(C)Oc3c(C)c(O)c4c(O)c(c(/C=N/N5CCN(C6CCCC6)CC5)c(O)c4c3C2=O)NC(=O)/C(C)=C\C=C\[C@H](C)[C@H](O)[C@@H](C)[C@@H](O)[C@@H](C)[C@H](OC(C)=O)[C@@H]1C
Output: 0.968

Task: Einf for CC(=O)NC[C@H]1CN(c2ccc(N3CCOCC3)c(F)c2)C(=O)O1 [linezolid] + COc1c(N2C[C@@H]3CCCN[C@@H]3C2)c(F)cc2c(=O)c(C(=O)O)cn(C3CC3)c12 [moxifloxacin] + O=[N+]([O-])c1cn2c(n1)OC[C@@H](OCc1ccc(OC(F)(F)F)cc1)C2 [pretomanid] ?
Output: 0.954

Task: Query (molecule): COc1nc2ccc(Br)cc2cc1[C@@H](c1ccccc1)[C@@](O)(CCN(C)C)c1cccc2ccccc12 [bedaquiline] + CC(C)/N=c1\cc2n(-c3ccc(Cl)cc3)c3ccccc3nc-2cc1Nc1ccc(Cl)cc1 [clofazimine] + CC[C@@H](CO)NCCN[C@@H](CC)CO [ethambutol] ; field requested: Einf
Output: 0.992

Task: What does the data say about its Einf? Entry: CC(=O)NC[C@H]1CN(c2ccc(N3CCOCC3)c(F)c2)C(=O)O1 [linezolid] + COc1c(N2C[C@@H]3CCCN[C@@H]3C2)c(F)cc2c(=O)c(C(=O)O)cn(C3CC3)c12 [moxifloxacin] + NC(=O)c1cnccn1 [pyrazinamide]
Output: 0.939

Task: Param item = COc1nc2ccc(Br)cc2cc1[C@@H](c1ccccc1)[C@@](O)(CCN(C)C)c1cccc2ccccc12 [bedaquiline] + NNC(=O)c1ccncc1 [isoniazid] + NC(=O)c1cnccn1 [pyrazinamide] ; retrieve measured Einf.
Output: 0.987
